Molecular target: Luciferin 4-monooxygenase (Photinus pyralis) (UniProt P08659)
Assay: Primary firefly luciferase (FLuc) qHTS assay for identification of artifact compounds. (AID 1845220); also: nearly all actives have a fitted effect of over 60% in size;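 as to activity change, negative = inhibition: plate controls were DMSO vehicle for no effect and no enzyme for full effect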
Details: purified firefly luciferase, luminescence, 5 min; series mostly up to 54.1 µM
Activity calls are given as the source filed them. Calls follow the shape of the dose curve; as a rule, active = well fitted inhibition curve with a large enough effect; inconclusive = small, poorly fitted or top-dose-only effect; inactive = flat fitted curve, though single readings scatter.
parameter: activity change, negative = inhibition

Q. Which measured activity change, negative = inhibition value corresponds to CC12CCC3c4ccc(O)cc4CCC3C1CCC2OC1OC(C(=O)O)C(O)C(O)C1O (stereo unspecified) ?
A. inactive

Q. Any idea what its activity change, negative = inhibition is? The compound is C[C@H]1C[C@H]2[C@@H]3CCC4=CC(=O)C=C[C@]4(C)[C@@]3(F)[C@@H](O)C[C@]2(C)[C@@]1(O)C(=O)COP(=O)(O)O
A. inactive

Q. Which activity change, negative = inhibition value is on record for CC(/C=C/C1(O)C2(C)COC1(C)CC(=O)C2)O[C@@H]1O[C@H](CO)[C@@H](O)[C@H](O)[C@H]1O (stereo partly specified) ?
A. inactive

Q. GET /values?readout=activity change, negative = inhibition&item= CC(=O)OC[C@]12[C@H](OC(C)=O)C(=O)[C@@H]3[C@@H](OC(C)=O)[C@@]14O[C@@]3(C)COC(=O)c1cccnc1[C@@H](C)[C@H](C)C(=O)O[C@@H]([C@H](OC(C)=O)[C@@H]2OC(C)=O)[C@]4(C)O
A. inactive

Q. Which activity change, negative = inhibition value is on record for O=C(O)CCc1cc2ccoc2cc1O[C@@H]1O[C@H](CO[C@@H]2OC[C@](O)(CO)[C@H]2O)[C@@H](O)[C@H](O)[C@H]1O ?
A. inactive

Q. # activity change, negative = inhibition lookup, item CC/C=C\C[C@H]1C(=O)C=C[C@@H]1CCCCCCCC(=O)O
A. inactive

Q. Please give the measured activity change, negative = inhibition for this compound: O=C(/C=C/c1ccc(O)c(O)c1)OCc1ccccc1O[C@@H]1O[C@H](CO)[C@@H](O)[C@H](O)[C@H]1O
A. inactive

Q. Tell me the measured activity change, negative = inhibition of COc1c(C(CC(C)C)OC(C)=O)ccc(Oc2c(O)cc(C)cc2/C=C/C(C)=O)c1C(=O)O (stereo unspecified) , please.
A. inactive

More entries:
Q. Fill in the blank: the reported activity change, negative = inhibition of COc1ccc([C@@H]2N[C@H](C(=O)O)Cc3c2[nH]c2ccccc32)cc1CN1CCN(c2ccccc2F)CC1 is ____.
A. inactive

Q. Which activity change, negative = inhibition value belongs to CNC(=O)c1ccc2cc([C@@]3(O)CCn4cncc43)ccc2c1 ?
A. inactive

Q. Look up activity change, negative = inhibition: CC(C)(O)CNc1nc(Nc2ccnc(C(F)(F)F)c2)nc(-c2cccc(C(F)(F)F)n2)n1
A. inactive

Q. Quick check: activity change, negative = inhibition of O=c1ccn(C2OC(CO)C(O)C2O)c(=O)[nH]1 (stereo unspecified) ?
A. inactive

Q. Which measured activity change, negative = inhibition value corresponds to CC(/C=C/C1(O)C(C)CC(O)CC1(C)C)OC1OC(CO)C(O)C(O)C1O (stereo unspecified) ?
A. inactive

Q. For the compound O=S(=O)(NC1CCNCC1)c1cc(S(=O)(=O)c2ccccc2)ccc1C(F)(F)F , what activity change, negative = inhibition is on record?
A. inactive

Q. What does the record list as activity change, negative = inhibition for CC(C)CC(=O)O[C@@H]1OC=C(CO[C@@H]2O[C@H](CO[C@@H]3O[C@H](CO)[C@@H](O)[C@H](O)[C@H]3O)[C@@H](O)[C@H](O)[C@H]2O)[C@H]2C[C@H](O)[C@@H](CO)[C@@H]12 ?
A. inactive

Q. Need activity change, negative = inhibition, item COc1ccc2c(c1O)OC[C@H]1c3ccc(O)cc3O[C@@H]21
A. inactive

* * *

Tested on: KB-3-1
Assay: Cytotoxic Profiling of Annotated Libraries Using Quantitative High-Throughput Screening (AID 1296008); also: % is scaled to controls: 0 for no effect and ±100 for the full control effect; nearly all actives have a fitted effect of over 60% in size
Conditions: Five cell lines viability, CellTiter-Glo ATP luminescence, 48-72 h; hits give low values
Records with an inconclusive call do not appear.
The following compounds are shown together with reported max response values.
Dear colleague, please return just the value in %, with no unit written.

Q. Short answer please: max response, KB-3-1, entry CC(C)(O)c1ccc2c(c1)C(O)CC1C(C)(C(=O)O)CCCC21C (stereo not given)
A. 3.03

Q. I'm curious: which max response was measured for C=CC(C)(O)CO[C@@H]1O[C@H](CO)[C@@H](O)[C@H](O)[C@H]1O (stereo not given in full) tested on KB-3-1?
A. 1.27

Q. max response of CC1=C2C(=O)O[C@@H](c3ccoc3)[C@]2(C)CCC1 on KB-3-1?
A. 4.53

Q. API: value(readout=max response, system=KB-3-1) for record O=C1C[C@@H](c2ccc(O)cc2)Oc2cc(O)ccc21
A. 3.42

Q. For the record N#CCc1ccc(O)cc1O[C@@H]1O[C@H](CO)[C@@H](O)[C@H](O)[C@H]1O , what value of max response is listed for KB-3-1?
A. -0.902

More entries:
Q. Quick check: max response on KB-3-1, item CCC(CC)n1ccc2c(C(=O)NCc3c(C)cc(C)[nH]c3=O)cc(C#N)cc21 ?
A. 2.42

Q. Lab note: need max response for O=C(O)C[C@H]1CCC(=O)[C@@H]1C/C=C\CCOC1OC(CO)C(O)C(O)C1O (stereo not given in full) on KB-3-1, anyone have it?
A. 1.25

Q. Form field: max response recorded for C=C1CC[C@@H]2[C@](C)(CC[C@H](O)[C@@]2(C)CCC=C(C)C)[C@@H]1Cc1c[nH]c2ccccc12 with KB-3-1 (enter value)
A. 1.09

Q. Provide value of max response for this record tested with KB-3-1: CC1(C)O[C@]23C[C@H]1C[C@H](OC(=O)c1ccoc1)[C@]2(C)[C@@H](OC(=O)c1ccoc1)CCC3(C)O (stereo not given in full)
A. 7.96

Q. Return max response measured with KB-3-1 given this compound: CC(=O)c1c(O)cc2c(c1C)C(=O)CC(O)C2 (stereo not given)
A. 9.72

* * *

// reported max response for each item listed
Test system: KB-3-1
Test: Cytotoxic Profiling of Annotated Libraries Using Quantitative High-Throughput Screening (AID 1296008); also: % is scaled to controls: 0 for no effect and ±100 for the full control effect; nearly all actives have a fitted effect of over 60% in size
Details: Five cell lines viability, CellTiter-Glo ATP luminescence, 48-72 h; hits give low values
Results filed as inconclusive are left out.
Use % as the unit, but write only the number.

Q. Item COC(=O)c1ccc(O[C@@H]2O[C@H](CO)[C@@H](O)[C@H](O)[C@H]2O)c(OC)c1 has what recorded max response?
A. 4.82

Next:
Q. Request the reported max response associated with C/C=C(\C)C(=O)O[C@@H]1CC2[C@@H](CC=C3C[C@@H](O[C@H]4C[C@H](OC)[C@H](O[C@H]5C[C@H](OC)[C@H](O[C@H]6C[C@H](OC)[C@H](O[C@H]7C[C@@H](OC)[C@H](O[C@@H]8O[C@H](CO)[C@@H](O)[C@H](O)[C@H]8O)[C@@H](C)O7)[C@@H](C)O6)[C@@H](C)O5)[C@@H](C)O4)CC[C@@]32C)[C@@]2(O)CC[C@H](C(C)=O)[C@@]12C (some centres undefined)
A. -8.02

Q. Would you mind telling me what max response value was observed for COC(=O)[C@@]1(O)C=CC[C@@H]2[C@@]3(C)C[C@@H](c4ccoc4)OC(=O)[C@H]3CC[C@]21C ?
A. 0.0207

Q. For the molecule C=CC(C)(O)CC/C=C(/C)C(=O)OC1C(OC2OCC(OC3OC(CO)C(O)C(O)C3O)C(OC3OCC(O)C(OC4OC(C)C(O)C(O)C4O)C3O)C2O)COC(OC(=O)C23CCC(C)(C)CC2C2=CCC4C5(C)CCC(OC6OC(CO)C(OC7OC(CO)C(O)C(OC8OCC(O)C(O)C8O)C7O)C(O)C6O)C(C)(C)C5CCC4(C)C2(C)CC3O)C1O (centres undefined) , what max response is on record?
A. -5.7

* * *

Target: Luciferin 4-monooxygenase (Photinus pyralis) (UniProt P08659)
Experiment: Primary firefly luciferase (FLuc) qHTS assay for identification of artifact compounds. (AID 1845220); also: nearly all actives have a fitted effect of over 60% in size
Details: purified firefly luciferase, luminescence, 5 min; series mostly up to 54.1 µM
Active and inactive are the calls of the source. Calls follow the shape of the dose curve; as a rule, active = well fitted inhibition curve with a large enough effect; inconclusive = small, poorly fitted or top-dose-only effect; inactive = flat fitted curve, though single readings scatter.
parameter: outcome

Q. Which measured outcome value corresponds to C[C@@H]1O[C@@H](O[C@H]2[C@H](O)[C@@H](O)[C@H](OC[C@H]3O[C@@H](OC(=O)[C@]45CCC(C)(C)C[C@H]4C4=CCC6[C@@]7(C)C[C@H](O)[C@H](O[C@@H]8O[C@H](CO)[C@@H](O)[C@H](O)[C@H]8O)[C@@](C)(C(=O)O)C7CC[C@@]6(C)[C@]4(C)CC5)[C@H](O[C@@H]4O[C@H](CO)[C@@H](O)[C@H](O)[C@H]4O)[C@@H](O)[C@@H]3O)O[C@@H]2CO)[C@H](O)[C@H](O)[C@H]1O (some centres not stated) ?
A. inactive [at 11.6 µM]

Q. State the recorded outcome for this entry: C[C@@H]1O[C@@H](O[C@H]2[C@H](OC(=O)[C@]34CCC(C)(C)C[C@H]3C3=CCC5[C@@]6(C)C[C@H](O)[C@H](O[C@@H]7O[C@H](CO[C@@H]8OC[C@H](O)[C@H](O)[C@H]8O)[C@@H](O)[C@H](O)[C@H]7O)C(C)(C)C6CC[C@@]5(C)[C@]3(C)C[C@H]4O)OC[C@@H](O)[C@@H]2O)[C@H](O)[C@H](O[C@@H]2OC[C@](O)(CO)[C@H]2O)[C@H]1O[C@@H]1OC[C@H](O)[C@H](O[C@@H]2OC[C@@H](O)[C@H](O)[C@H]2O)[C@H]1O (some centres not stated)
A. inactive [at 11.6 µM]
